Recorded fold difference in affinity vs original, one value per entry.
- ASSAY_SYSTEM: T1, IL-1β (UniProt P01584 117-269)
- T1 construct: Antigen immobilised on the Biacore chip
- PROTOCOL_NOTES: Biacore, periplasmic extract
# number only, unit fold dropped from output

Query: State its fold difference in affinity vs original for this binder: XPA23 light chain N30A (Fab, V domains shown) VH: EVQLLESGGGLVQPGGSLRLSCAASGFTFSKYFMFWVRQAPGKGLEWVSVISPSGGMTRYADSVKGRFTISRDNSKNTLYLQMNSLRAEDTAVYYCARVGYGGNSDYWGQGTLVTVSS VL: DIQMTQSPSSVSASVGDRLTIICRASQDIARWLAWYQQTPGNAPKLLIHSATSLQSGVPSRFSGSGSGTDFTLTINSLQPEDFATYYCQQADSFPLTFGGGTKVEIK
Result: 0.61

Query: Read the entry XPA23 light chain P95D (Fab, V domains shown) VH: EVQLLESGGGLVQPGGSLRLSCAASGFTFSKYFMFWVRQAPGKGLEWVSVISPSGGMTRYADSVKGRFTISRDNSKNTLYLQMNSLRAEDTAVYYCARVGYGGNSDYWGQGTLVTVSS VL: DIQMTQSPSSVSASVGDRLTIICRASQDINRWLAWYQQTPGNAPKLLIHSATSLQSGVPSRFSGSGSGTDFTLTINSLQPEDFATYYCQQADSFDLTFGGGTKVEIK and write its reported fold difference in affinity vs original.
Result: 1.32

Query: Hello, please tell me recorded fold difference in affinity vs original for this one: XPA23 light chain R31K (Fab, V domains shown) VH: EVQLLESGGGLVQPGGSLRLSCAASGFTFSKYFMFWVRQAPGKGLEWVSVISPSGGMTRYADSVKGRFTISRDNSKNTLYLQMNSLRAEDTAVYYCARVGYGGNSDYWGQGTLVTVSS VL: DIQMTQSPSSVSASVGDRLTIICRASQDINKWLAWYQQTPGNAPKLLIHSATSLQSGVPSRFSGSGSGTDFTLTINSLQPEDFATYYCQQADSFPLTFGGGTKVEIK
Result: 1.18
